target: MAPK14 (human) (UniProt Q16539); conditions: Monocyte
Sequence (Q16539 whole entry, looked up): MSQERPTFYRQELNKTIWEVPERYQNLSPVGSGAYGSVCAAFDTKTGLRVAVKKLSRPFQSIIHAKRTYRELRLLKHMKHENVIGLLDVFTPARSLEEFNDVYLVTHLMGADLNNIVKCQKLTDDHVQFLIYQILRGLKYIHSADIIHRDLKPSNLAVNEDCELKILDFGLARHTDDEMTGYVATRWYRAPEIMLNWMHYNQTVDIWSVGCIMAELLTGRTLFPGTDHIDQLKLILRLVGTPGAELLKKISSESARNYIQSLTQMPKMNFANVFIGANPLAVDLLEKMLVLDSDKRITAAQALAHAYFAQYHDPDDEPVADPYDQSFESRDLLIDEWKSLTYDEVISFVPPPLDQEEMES
pEC50: −log10 of the molar value.
attribute-measured: pEC50

Below are worked cases with known answers.
> print(dat)
                                   molecule  value.measured
1  C[C@]1(C(=O)N2CCOCC2)CO[C@H](c2nc(-c3ccncc3)c(-c3ccc(F)cc3)[nH]2)OC1            6.96
2  CC(C)C1O[C@H](c2nc(-c3ccncc3)c(-c3ccc(F)cc3)[nH]2)OCC1(C)C (some centres not stated)            6.94
3  Fc1ccc(-c2[nH]c([C@H]3OC[C@H](Cc4ccccc4)CO3)nc2-c2ccncc2)cc1            6.72
4  C[C@]1(NC(=O)c2ccccc2)CO[C@H](c2nc(-c3ccncc3)c(-c3ccc(F)cc3)[nH]2)OC1            6.96
5  C[C@]1(CNC(=O)c2ccccc2)CO[C@H](c2nc(-c3ccncc3)c(-c3ccc(F)cc3)[nH]2)OC1            7.08

A: OC[C@H]1CO[C@@H](c2nc(-c3ccncc3)c(-c3ccc(F)cc3)[nH]2)OC1
B: C[C@]1(N)CO[C@@H](c2nc(-c3ccncc3)c(-c3ccc(F)cc3)[nH]2)OC1
C: C=C1COC(c2nc(-c3ccncc3)c(-c3ccc(F)cc3)[nH]2)OC1
D: C[C@]1(CN)CO[C@@H](c2nc(-c3ccncc3)c(-c3ccc(F)cc3)[nH]2)OC1
Incoming: Sort by pEC50, descending. Answer with the labels in sequence, matching the requested order.
Outgoing: D, B, C, A

I: Fc1ccc(-c2[nH]c([C@H]3OC[C@@H](Cc4ccccc4)CO3)nc2-c2ccncc2)cc1
II: C[C@]1(CN)CO[C@H](c2nc(-c3ccncc3)c(-c3ccc(F)cc3)[nH]2)OC1
Incoming: Identify the item whose pEC50 is the smaller number: I or II Select an item and report its label.
Outgoing: I
(I: 6.84, II: 7.42)

* * *

target: MAPK14 (UniProt Q16539)
Sequence (Q16539 whole entry, looked up): as above
attribute-measured: pIC50
In plain terms, pIC50 is the concentration in mol/L turned into minus its base-10 logarithm.

Incoming: Can you look up pIC50 on MAPK14 (UniProt Q16539) for `C[C@]1(NC(=O)c2ccccc2)CO[C@H](c2nc(-c3ccncc3)c(-c3ccc(F)cc3)[nH]2)OC1` ?
Outgoing: 7.36
